Values compiled from ChEMBL document CHEMBL4390704.

Assignment: determine reported pIC50 for the given compounds.
# target_desc: UniProt:P49841
# Sequence (P49841 whole entry): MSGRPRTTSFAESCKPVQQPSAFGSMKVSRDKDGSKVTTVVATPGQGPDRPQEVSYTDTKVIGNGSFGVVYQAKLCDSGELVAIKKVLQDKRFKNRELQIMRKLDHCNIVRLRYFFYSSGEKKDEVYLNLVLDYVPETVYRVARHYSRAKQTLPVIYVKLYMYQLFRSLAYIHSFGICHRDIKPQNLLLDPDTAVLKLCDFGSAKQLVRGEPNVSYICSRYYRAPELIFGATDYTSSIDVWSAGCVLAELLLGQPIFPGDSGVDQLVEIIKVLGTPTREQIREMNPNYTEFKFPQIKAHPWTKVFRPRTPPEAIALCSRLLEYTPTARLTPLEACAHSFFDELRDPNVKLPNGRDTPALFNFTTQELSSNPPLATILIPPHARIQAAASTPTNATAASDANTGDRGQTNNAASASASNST
# assay_text: Inhibition of recombinant human GSK3beta using prephosphorylated peptide as substrate measured after 30 mins by Kinase-glo luminescence assay
Numbers only, as −log10 of the molar value.

Consider the reported pIC50 for these compounds:
{"columns": ["smiles_entry", "reported_measurement"],
 "data": [
  ["COc1ccc(CNC(=O)Nc2nc3ccc(C#N)cc3s2)cc1", 6.96],
  ["COc1ccc(CNC(=O)Nc2nc3ccc(C#N)cc3[nH]2)cc1", 7.07],
  ["C=CC(=O)c1ccc2nc(NC(=O)NCc3ccc(OC)cc3)[nH]c2c1", 5.74]
]}

Value sought for every listed compound: pIC50.
1. C#CC(=O)c1ccc2nc(NC(=O)NCc3ccc(OC)cc3)sc2c1
2. C#CC(=O)c1ccc2nc(NC(=O)NCc3ccc(OC)cc3)[nH]c2c1
3. COc1ccc(CNC(=O)Nc2nc3ccc(C(=O)CBr)cc3s2)cc1

Outgoing:
1. 5.38
2. 5.61
3. 6.11
